Target: human GLP-1 receptor (human, UniProt P43220 24-463)
Assay: cell-based or functional assay
*1 amine or outer side, *2 acyl side, *3 side chain or, on linkers, in order; H or OH if unused. Bridges are numbered along the chain shown (N, C = ends). Where no end group is shown, it is not given here. [ ]: non-standard residue; d: D form. γGlu = O=C(O)[C@H](CCC(=O)[*:2])N[*:1]; oxa12‑cholesterol = not defined here

{"columns": ["binder", "hGLP-1R EC50 (pM)"],
 "data": [
  ["HXQGTFTSDYSKYLDSRRAQDFVQWLMNTKEEC (Aib at position 2; gamma-glutamic acid at positions 31 and 32; C10 = Cys(oxa12-cholesterol) at position 33; C-terminal COOH) [OXM400]", 70],
  ["HSQGTFTSDYSKYLDSRRAQDFVQWLMNTKEEC (D-Ser at position 2; gamma-glutamic acid at positions 31 and 32; C4 = Cys(cholesterol) at position 33; C-terminal COOH) [OXM345]", 5100],
  ["H[dS]QGTFTSDYSKYLDERRAKDFVQWLMNTK[γGlu][γGlu]C(oxa12‑cholesterol)-OH (lactam 16-20; reading uncertain) [OXM392]", 30],
  ["HSQGTFTSDYSKYLDSRRAQDFVQWLMNTKEEC (D-Ser at position 2; gamma-glutamic acid at positions 31 and 32; C7 = Cys(Oxa4-cholesterol) at position 33; C-terminal COOH) [OXM380]", 300]
]}
